Attribution: PubChem BioAssay AID777

TESTED ON: Cytochrome P450 2C9 (Homo sapiens) (UniProt P11712)
Sequence (P11712 whole entry, looked up): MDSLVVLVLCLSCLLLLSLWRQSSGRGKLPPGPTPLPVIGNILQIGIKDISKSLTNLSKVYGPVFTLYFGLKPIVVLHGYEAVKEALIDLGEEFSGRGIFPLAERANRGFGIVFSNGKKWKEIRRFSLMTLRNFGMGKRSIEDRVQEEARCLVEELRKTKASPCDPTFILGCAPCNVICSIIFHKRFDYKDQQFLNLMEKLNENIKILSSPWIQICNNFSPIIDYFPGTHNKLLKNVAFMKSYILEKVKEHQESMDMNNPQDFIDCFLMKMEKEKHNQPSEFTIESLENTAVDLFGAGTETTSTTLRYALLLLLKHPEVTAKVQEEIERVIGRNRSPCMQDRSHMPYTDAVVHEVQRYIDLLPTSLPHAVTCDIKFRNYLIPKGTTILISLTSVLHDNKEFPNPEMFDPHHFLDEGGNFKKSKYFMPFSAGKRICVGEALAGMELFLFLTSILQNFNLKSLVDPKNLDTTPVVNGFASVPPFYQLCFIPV
TEST METHOD NOTES: blockers of cytochrome P450 2C9 activity – biochemical, luminescence, ADME assay, primary screen (AID 777)
TEST CONTEXT: CYP2C9 Supersomes, luciferin-H conversion, at 5 µM, active compounds read high
About 19,000 (20%) of roughly 96,000 compounds were called active. The list is a sample of the results.
Rule: inhibition under 10% gives n, otherwise y.

In: Answer whether inhibition of `CCc1ccc(NC(=O)CSc2nc3ccccc3c(=O)n2CCN2CCOCC2)cc1` is greater than or equal to 10%.
Out: y

In: // repeat for `CCOc1cc2[nH]c(=O)n(CCC(=O)NCc3ccc(OC)cc3)c(=O)c2cc1OCC` and report
Out: n

In: Next: CN(C)c1cc(N)c2ccccc2n1 (tested in a mixture with another compound)
Out: n

In: And `C1=C(CCNc2ncnc3c2cnn3-c2ccccc2)CCCC1` ?
Out: y

In: Record: `COc1ccc(/C=C(\NC(=O)c2ccc(OC)c(OC)c2)C(=O)NCCc2c[nH]c3ccccc23)cc1`
Out: y

In: Same again, this time with `O=C(O)CCC(=O)NCc1ccc2[nH]c3c(c2c1)CCCC3`
Out: n

In: Try `O=C(CCn1c(SCC(=O)c2ccccc2)nc2ccccc2c1=O)NCc1ccc(F)cc1` next.
Out: y

In: Also, Cc1cc(NC(=O)CCC2COc3ccccc3O2)no1 (centres undefined) please.
Out: n

In: Now consider `Cc1ccc(C(=O)N/C(=C/c2ccco2)C(=O)NCCc2c[nH]c3ccccc23)cc1C` .
Out: y

In: Also, Cc1ccc(C(C(=O)NC2CCCC2)N(Cc2ccco2)C(=O)CCC(=O)Nc2ccccn2)cc1 (centres undefined) please.
Out: y

In: And what about the molecule `CCCCN(C)C(=O)C1CCN(Cc2ccccn2)CC1` ?
Out: y

In: Subsequent entry: `Cc1nn(-c2ccccc2)c2c1C(=O)NC(=O)C(C)(C)C2`
Out: y

In: Quick one: COc1ccc(NC2CC(=O)N(C)C2=O)cc1 (centres undefined)
Out: n

In: # iterate: FC(F)Oc1ccccc1C1CC(c2ccc(Br)s2)Nc2ncnn21 (centres undefined)
Out: y

In: Similarly, CCOC(=O)N1CCN(c2c(NCCCN3CCCC(C)C3)c(=O)c2=O)CC1 (centres undefined) ?
Out: y

In: Also `COc1cc(OC)c(-n2c(C)cc(C=O)c2C)cc1Cl` , if possible.
Out: y

In: Subsequent entry: COc1ccc(S(=O)(=O)N2CCCC(C(=O)Nc3ccc(NC(=O)c4ccccn4)cc3)C2)cc1 (centres undefined)
Out: n

In: Request: `Cc1ccc(Cn2c(C)nc3c(c2=O)c2nc4ccccc4nc2n3Cc2ccco2)cc1`
Out: y

In: Please give the result for `CC(=O)c1c(C)[nH]c(C(=O)NCCCN2CCCC2)c1C` too.
Out: n

In: Quick one: COc1ccc(NC(=O)C(NC(C)=O)C(=O)NCc2ccccc2Cl)cc1 (centres undefined)
Out: y

In: And what about the molecule `S=C(NCCC1=CCCCC1)Nc1ccccc1` ?
Out: y

In: And the next one, `Cc1nc2nc(C)c(CCC(=O)N3CCN(c4ccccc4)CC3)c(C)n2n1` ?
Out: n

In: Now give it for O=C(CSc1nnc(-c2ccco2)n1CC1CCCO1)c1ccccc1 (centres undefined) too.
Out: n

In: Also need `COc1ccc(OC)c2c(N)c(C#N)c(C(F)(F)C(F)(F)F)nc12` , thanks.
Out: n

In: Same read-out for `Cc1cc(C(=O)Nc2c(C)nn(Cc3ccccc3)c2C)on1` ?
Out: y

In: And what about the molecule `Cc1cc(C)n2nc(C(=O)NC(C)(C)C)nc2n1` ?
Out: n

In: Further, for `O=C(CCCn1c(SCC(=O)c2ccc(F)cc2)nc2ccccc2c1=O)NCc1ccco1` ?
Out: y

In: # iterate: `CCN(c1ccccc1)S(=O)(=O)c1ccc(C(=O)Nc2nccs2)cc1`
Out: y

In: Same again, this time with `COc1ccc(/C=C(/NC(=O)c2ccc(C)cc2)c2nc3ccccc3[nH]2)cc1OC`
Out: y

In: What do you have for `COc1cccc2c1OCC(C(=O)NCc1ccc(Cl)cc1Cl)=C2` ?
Out: n

In: Another: `Cc1cc(C)cc(OCC(=O)Nc2nc3ccc([N+](=O)[O-])cc3s2)c1`
Out: y

In: Param item: `CSc1ccccc1NC(=O)c1cc(C2CC2)on1`
Out: n

In: Input `COc1ccc(C)cc1NC(=O)c1[nH]c(C)c(C(C)=O)c1C`
Out: y

In: How about `COC(=O)C1CCN(CC(N)=O)CC1` ?
Out: n

In: Try the molecule `Cc1cc(Nc2ccccc2)nc(N)n1`
Out: n

In: Lookup `CCOC(=O)N1CCN(C(=O)CN(C2CCCCC2)S(C)(=O)=O)CC1`
Out: n

In: Please answer likewise for `Clc1ccc(C=NC23CN4CN(CN(C4)C2)C3)cc1`
Out: n

In: Follow-up item: COCCCN1C(=O)C(=O)/C(=C(/O)c2ccc3c(c2)CC(C)O3)C1c1cccnc1 (centres undefined)
Out: n

In: Can you check `COCCCn1c2nc3ccccc3nc2c2c(=O)n(Cc3ccc(Cl)cc3)c(C)nc21` next?
Out: y

In: Another molecule: `Cc1c(C(=O)OC(C)C)sc(NC(=O)c2cccnc2)c1C#N`
Out: y

In: Further, for `O=C(NC(Nc1nc2ccc([N+](=O)[O-])cc2s1)(C(F)(F)F)C(F)(F)F)c1ccccc1` ?
Out: y

In: Then what about the molecule Cc1cc(NC(=O)CCC(=O)N(c2cccc(F)c2)C(C(=O)NC2CCCC2)c2ccncc2)no1 (centres undefined) ?
Out: y

In: Again, but for CCn1c(SCC(=O)NCC2CCCO2)nc2cc(S(=O)(=O)N3CCCCC3)ccc21 (centres undefined)
Out: y

In: And O=C(CCCn1c(SCC(=O)c2ccccc2)nc2ccccc2c1=O)NCC1CCCO1 (centres undefined) ?
Out: y
